# Tested on: HSV-1 strain F or KOS
# protocol text: Inhibition of herpes simplex virus (HSV-1) replication in cell culture (BHK-21 cells, glycoprotein C ELISA)
# Type: cell-based
# condition description: Human alphaherpesvirus 1, BHK-21, Group 1 Table 1 entries
pEC50: −log10 of the molar value.
Parameter threshold = 7. Response is met when pEC50 meets or exceeds it, else not met.

INSERT INTO measurements (compound, group_label) VALUES
  ('Nc1nc(-c2ccc(NC(=O)CNCC3CCCCC3)cc2)cs1 [Example 8]', 'not met'),
  ('Nc1nc(-c2ccc(NC(=O)CN(Cc3ccccc3)C(=O)OCc3ccccc3)cc2)cs1 [Example 109]', 'not met'),
  ('Nc1nc(-c2ccc(NC(=O)CN(CC3CCCCC3)S(=O)(=O)N3CCOCC3)cc2)cs1 [Example 107]', 'not met'),
  ('Nc1nc(-c2ccc(NC(=O)CNCc3ccc(F)cc3)cc2)cs1 [Example 4]', 'not met'),
  ('Cc1ccc(CNCC(=O)Nc2ccc(-c3csc(N)n3)cc2)cc1 [Example 6]', 'not met'),
  ('CC(C)(C)CN(CC(=O)Nc1ccc(-c2csc(N)n2)cc1)C(=O)OC(C)(C)C [Example 142]', 'not met'),
  ('Nc1nc(-c2ccc(NC(=O)CN(Cc3ccc(Cl)cc3)C(=O)CC3CCCCC3)cc2)cs1 [Example 69]', 'not met'),
  ('CC(C)(C)OC(=O)N(CC(=O)Nc1ccc(-c2csc(N)n2)cc1)Cc1ccncc1 [Example 90]', 'met'),
  ('Nc1nc(-c2ccc(NC(=O)CN(Cc3ccccc3)C(=O)c3ccc(F)cc3)cc2)cs1 [Example 24]', 'met'),
  ('Nc1nc(-c2ccc(NC(=O)CN(Cc3ccccn3)C(=O)C3CCCCC3)cc2)cs1 [Example 47]', 'met');

State whether the measured pEC50 reaches 7, counting equality as reaching it, for Nc1nc(-c2ccc(NC(=O)CN(CC3CCCCC3)C(=O)Cc3ccccc3)cc2)cs1 [Example 77] not met

State whether the measured pEC50 reaches 7, counting equality as reaching it, for Nc1nc(-c2ccc(NC(=O)CN(Cc3cccnc3)C(=O)C3CCCCC3)cc2)cs1 [Example 48] met

* * *

# study target: HSV-1 helicase-primase (Human herpesvirus 1, UniProt P10189+P10236)
# Construct: made in house; host or cells: Sf21 insect cells triply infected with recombinant baculoviruses (UL5, UL8, UL52)
# Sequence (P10192 whole entry): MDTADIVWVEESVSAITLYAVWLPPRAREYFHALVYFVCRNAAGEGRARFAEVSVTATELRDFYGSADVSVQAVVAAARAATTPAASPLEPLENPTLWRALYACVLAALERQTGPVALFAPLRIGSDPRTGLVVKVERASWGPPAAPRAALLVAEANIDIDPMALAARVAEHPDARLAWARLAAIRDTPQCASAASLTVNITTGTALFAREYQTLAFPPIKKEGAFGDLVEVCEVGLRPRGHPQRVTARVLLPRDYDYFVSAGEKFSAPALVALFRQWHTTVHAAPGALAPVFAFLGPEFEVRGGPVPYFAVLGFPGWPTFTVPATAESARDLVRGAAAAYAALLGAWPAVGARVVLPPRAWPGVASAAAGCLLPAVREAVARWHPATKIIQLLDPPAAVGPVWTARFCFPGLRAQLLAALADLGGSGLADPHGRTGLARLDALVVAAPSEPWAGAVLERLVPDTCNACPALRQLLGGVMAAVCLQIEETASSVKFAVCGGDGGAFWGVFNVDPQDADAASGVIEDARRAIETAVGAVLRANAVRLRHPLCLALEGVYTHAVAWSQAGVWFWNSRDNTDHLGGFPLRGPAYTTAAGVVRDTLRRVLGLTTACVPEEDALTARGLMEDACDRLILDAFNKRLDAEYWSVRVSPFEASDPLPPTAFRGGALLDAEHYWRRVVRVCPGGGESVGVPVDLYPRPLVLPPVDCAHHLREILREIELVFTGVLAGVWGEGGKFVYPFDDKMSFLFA
# Sequence (P10236 whole entry): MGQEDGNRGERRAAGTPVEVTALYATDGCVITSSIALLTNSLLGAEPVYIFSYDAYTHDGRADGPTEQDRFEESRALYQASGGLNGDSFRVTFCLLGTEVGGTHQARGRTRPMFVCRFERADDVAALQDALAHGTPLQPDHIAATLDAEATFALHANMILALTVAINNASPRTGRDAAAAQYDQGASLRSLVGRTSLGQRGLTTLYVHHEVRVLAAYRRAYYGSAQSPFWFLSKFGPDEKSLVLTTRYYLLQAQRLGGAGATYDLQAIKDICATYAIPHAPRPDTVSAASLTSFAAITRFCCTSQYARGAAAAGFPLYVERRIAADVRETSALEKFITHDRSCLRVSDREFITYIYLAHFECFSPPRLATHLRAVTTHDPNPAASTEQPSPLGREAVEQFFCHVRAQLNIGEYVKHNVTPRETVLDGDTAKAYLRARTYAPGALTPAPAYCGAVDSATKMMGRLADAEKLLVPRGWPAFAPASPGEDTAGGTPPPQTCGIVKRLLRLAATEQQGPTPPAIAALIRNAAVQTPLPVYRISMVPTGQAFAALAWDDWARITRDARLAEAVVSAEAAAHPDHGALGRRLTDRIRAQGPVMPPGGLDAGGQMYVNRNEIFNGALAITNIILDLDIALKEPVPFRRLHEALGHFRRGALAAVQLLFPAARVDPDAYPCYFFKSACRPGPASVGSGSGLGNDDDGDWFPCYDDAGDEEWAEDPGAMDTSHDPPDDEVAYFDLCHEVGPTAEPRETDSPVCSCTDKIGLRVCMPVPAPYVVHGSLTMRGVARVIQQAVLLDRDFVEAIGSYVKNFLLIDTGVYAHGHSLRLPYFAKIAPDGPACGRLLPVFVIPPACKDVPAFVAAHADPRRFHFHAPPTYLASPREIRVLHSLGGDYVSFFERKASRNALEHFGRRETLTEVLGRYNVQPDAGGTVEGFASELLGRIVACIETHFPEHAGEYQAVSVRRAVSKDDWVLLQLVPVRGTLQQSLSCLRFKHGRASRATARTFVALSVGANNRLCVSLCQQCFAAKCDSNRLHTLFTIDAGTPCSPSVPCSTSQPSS
# Sequence (P10189 whole entry): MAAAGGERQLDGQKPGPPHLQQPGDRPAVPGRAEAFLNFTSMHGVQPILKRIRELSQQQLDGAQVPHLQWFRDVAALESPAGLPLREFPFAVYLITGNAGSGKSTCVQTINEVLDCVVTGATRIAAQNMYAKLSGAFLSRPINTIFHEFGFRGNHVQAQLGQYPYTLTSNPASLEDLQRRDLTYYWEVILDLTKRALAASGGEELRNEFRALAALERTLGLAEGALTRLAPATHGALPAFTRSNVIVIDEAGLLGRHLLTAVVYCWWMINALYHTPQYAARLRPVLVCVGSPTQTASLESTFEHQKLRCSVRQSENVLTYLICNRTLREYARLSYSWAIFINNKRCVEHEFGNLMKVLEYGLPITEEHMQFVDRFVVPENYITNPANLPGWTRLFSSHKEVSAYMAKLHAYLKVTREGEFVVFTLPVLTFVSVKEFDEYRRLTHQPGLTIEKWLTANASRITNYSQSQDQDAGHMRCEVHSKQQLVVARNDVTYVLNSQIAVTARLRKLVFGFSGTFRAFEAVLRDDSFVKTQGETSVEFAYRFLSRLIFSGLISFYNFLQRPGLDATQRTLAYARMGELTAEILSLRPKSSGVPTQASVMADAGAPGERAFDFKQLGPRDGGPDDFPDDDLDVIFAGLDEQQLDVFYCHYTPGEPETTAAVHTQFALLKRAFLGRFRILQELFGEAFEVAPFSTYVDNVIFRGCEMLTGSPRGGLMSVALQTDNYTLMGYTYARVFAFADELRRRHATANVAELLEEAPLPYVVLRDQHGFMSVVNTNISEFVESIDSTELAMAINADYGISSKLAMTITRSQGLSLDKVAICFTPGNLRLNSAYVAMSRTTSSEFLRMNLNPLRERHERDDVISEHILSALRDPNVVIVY
# protocol text: HSV-1 DNA-dependent ATPase assay (inhibition of HSV-1 helicase-primase)
# Type: biochemical
# condition description: Group 1 Table 1 entries
# Description: A) HSV-1 DNA-Dependent ATP Assay (an in Vitro Assay Based on the Inhibition of HSV-1 Helicase-primase). […] The DNA-dependent ATPase assay, described by J. J. Crute et al., Nucleic Acids Res. 1988, 16, 6585, was modified and used to evaluate the capability of the compounds of Group 1-formula 1 to inhibit HSV-1 helicase-primase activity. […] DNA-dependent ATPase activity was calculated from the net absorbance change in the presence and absence of inhibition.
pIC50: −log10 of the molar value.
Parameter threshold = 6. Response is Met when pIC50 meets or exceeds it, else Not met.

INSERT INTO measurements (smiles_notation, group_label) VALUES
  ('Nc1nc(-c2ccc(NC(=O)CN(CCc3cscn3)C(=O)c3ccncc3)cc2)cs1', 'Not met'),
  ('Nc1nc(-c2ccc(NC(=O)CN(Cc3ccccc3)C(=O)CC3CCCC3)cc2)cs1', 'Met');

Field: next compound
State whether the measured pIC50 reaches 6, counting equality as reaching it, for Nc1nc(-c2ccc(NC(=O)CN(Cc3ccccc3)C(=O)Cc3ccccn3)cc2)cs1 Not met

* * *

# Tested on: HCMV (strain AD169)
# protocol text: Inhibition of HCMV replication, plaque reduction assay (PRA, Hs-68 cells)
# Assay type: cell-based, Human Cytomegalovirus (HCMV)
# condition description: Human betaherpesvirus 5, AD169, Hs68, Group 2 Table 1 entries, read-out: PRA CMV EC50
pEC50: −log10 of the molar value.
value kind: pEC50

The following molecules have reported results that may help.
INSERT INTO assay_data (smiles_notation, meas_value) VALUES
  ('Nc1nc(-c2ccc(NC(=O)NCCN(Cc3ccccc3)Cc3ccccc3)cc2)cs1', '< 5.30'),
  ('CC(C)(C)NC(=O)Nc1ccc(-c2csc(N)n2)cc1', '< 4.49'),
  ('Nc1nc(-c2ccc(NC(=O)NCCCn3ccnc3)cc2)cs1', '< 4.32'),
  ('Nc1nc(-c2ccc(NC(=O)NCCc3ccccc3)cc2)cs1', '< 5.40');

Look up pEC50 for the entries below, preserving their order.
1. C#CCNC(=O)Nc1ccc(-c2csc(N)n2)cc1
2. Nc1nc(-c2ccc(NC(=O)Nc3nccs3)cc2)cs1
3. C[C@H](NC(=O)Nc1ccc(-c2csc(N)n2)cc1)c1ccccc1
4. CN(C)c1ccc(CNC(=O)Nc2ccc(-c3csc(N)n3)cc2)cc1
5. Nc1nc(-c2ccc(NC(=O)NCCc3ccc(F)cc3)cc2)cs1
6. Nc1nc(-c2ccc(NC(=O)NCc3cccc(F)c3)cc2)cs1

< 4.13
< 4.25
< 4.13
< 4.74
< 5.30
< 5.10

Look up pEC50 for the entries below, preserving their order.
1. CN(CCc1ccccn1)C(=O)Nc1ccc(-c2csc(N)n2)cc1
2. Nc1nc(-c2ccc(NC(=O)NCc3ccccc3)cc2)cs1
3. Nc1nc(-c2ccc(NC(=O)NCCc3ccccn3)cc2)cs1
4. Nc1nc(-c2ccc(NC(=O)NCc3ccccc3F)cc2)cs1
5. Nc1nc(-c2ccc(NC(=O)NCc3ccc(Cl)cc3)cc2)cs1

1. < 3.84
2. < 4.35
3. < 4.03
4. < 5.40
5. < 6.00

* * *

# Test system: HSV-1 strain F or KOS
# protocol text: Inhibition of herpes simplex virus (HSV-1) replication in cell culture (BHK-21 cells, glycoprotein C ELISA)
# Assay type: cell-based
# condition description: Human alphaherpesvirus 1, BHK-21, Group 1 Table 1 entries
value kind: pEC50
Numbers only, as −log10 of the molar value.

The following molecules have reported results that may help.
INSERT INTO assay_data (smiles_notation, value_kind, meas_value) VALUES
  ('C[C@@H](c1ccccc1)N(CC(=O)Nc1ccc(-c2csc(N)n2)cc1)C(=O)NC(C)(C)C', 'pEC50', 6.54),
  ('Nc1nc(-c2ccc(NC(=O)CN(Cc3ccccc3)C(=O)Cc3ccccc3)cc2)cs1', 'pEC50', 7.30),
  ('CC(C)(C)CN(CC(=O)Nc1ccc(-c2csc(N)n2)cc1)C(=O)C1CCCCC1', 'pEC50', 6.51),
  ('Nc1nc(-c2ccc(NC(=O)CN(Cc3ccccc3)C(=O)c3cccs3)cc2)cs1', 'pEC50', 7.40),
  ('Cc1ccc(C)c(CN(CC(=O)Nc2ccc(-c3csc(N)n3)cc2)C(=O)c2ccncc2)c1', 'pEC50', 7.96),
  ('Nc1nc(-c2ccc(NC(=O)CN(Cc3ccccc3)C(=O)Cc3ccccn3)cc2)cs1', 'pEC50', 6.40),
  ('C[C@@H](NCC(=O)Nc1ccc(-c2csc(N)n2)cc1)c1ccccc1', 'pEC50', 5.89),
  ('[N-]=[N+]=Nc1ccc(C(=O)N(CC(=O)Nc2ccc(-c3csc(N)n3)cc2)Cc2ccccc2)cc1', 'pEC50', 6.92),
  ('COc1cccc(CN(CC(=O)Nc2ccc(-c3csc(N)n3)cc2)C(=O)c2ccncc2)c1', 'pEC50', 7.26),
  ('Nc1nc(-c2ccc(NC(=O)CN(CC3CCCCC3)C(=O)CC3CCCC3)cc2)cs1', 'pEC50', 6.62);

Look up pEC50 for the entries below, preserving their order.
1. Nc1nc(-c2ccc(NC(=O)CN(CCc3ccccn3)C(=O)c3ccncc3)cc2)cs1
2. Nc1nc(-c2ccc(NC(=O)CN(Cc3ccccc3)C(=O)CC3CCCC3)cc2)cs1
3. CC(C)(C)OC(=O)NCC(=O)N(CC(=O)Nc1ccc(-c2csc(N)n2)cc1)Cc1ccccc1
4. COC(=O)N(CC(=O)Nc1ccc(-c2csc(N)n2)cc1)Cc1ccccc1

1: 6.36; 2: 8.05; 3: 6.17; 4: 5.96

* * *

# Test system: HSV-1 strain F or KOS
# protocol text: Inhibition of herpes simplex virus (HSV-1) replication in cell culture (BHK-21 cells, glycoprotein C ELISA)
# Assay type: cell-based
# condition description: Human alphaherpesvirus 1, BHK-21, Group 1 Table 1 entries
# Description: B) Inhibition of Herpes Simplex Virus (HSV-1) Replication in Cell Culture […] Thereafter, the cells were infected with HSV-1 strain F or KOS (multiplicity of infection =0.05 PFU/cell) in 50 μL of α-MEM supplemented with 2% heat inactivated FBS. […] After 24 hours of incubation at 37°, the extent of viral replication was determined by an ELISA assay; for instance, the following assay that detects the late glycoprotein C of HSV-1. […]
Give pEC50 for every item shown.
Numbers only, as −log10 of the molar value.

The following compounds have reported results that may help.
INSERT INTO measurements (smiles_notation, study_target, meas_value) VALUES
  ('CC(=O)N(CC(=O)Nc1ccc(-c2csc(N)n2)cc1)Cc1ccccc1', 'HSV-1 strain F or KOS', 6.12),
  ('Nc1nc(-c2ccc(NC(=O)CN(Cc3ccccc3)C(=O)c3cscn3)cc2)cs1', 'HSV-1 strain F or KOS', 5.82);

Name the reported pEC50 value associated with the compound Nc1nc(-c2ccc(NC(=O)CN(Cc3ccccc3)S(=O)(=O)NCc3ccccc3)cc2)cs1 6.00
